# Target of assay: Aldo-keto reductase family 1 member B1 (Rattus norvegicus) (UniProt P07943)
# Assay info: Inhibition of Rattus norvegicus albino (rat) kidney aldose reductase using D-L-glyceraldehyde as substrate assessed as decrease in NADPH concentration at 3.3 x 10^-6 M after 5 min by spectrophotometric analysis
// values below are reported inhibition
Your answer should be a plain number; it is taken to be in %.

Examples with answers:
Value sought: inhibition, system Aldo-keto reductase family 1 member B1 (Rattus norvegicus) (UniProt P07943), item `C=C(NC(C)=O)C(=O)NC` . Result: 9.46

Value sought: inhibition, system Aldo-keto reductase family 1 member B1 (Rattus norvegicus) (UniProt P07943), item `C=C(NC(C)=O)C(=O)NCc1ccc(Cl)cc1` . Result: 2.3

Value sought: inhibition, system Aldo-keto reductase family 1 member B1 (Rattus norvegicus) (UniProt P07943), item `C=C(NC(C)=O)C(=O)Nc1nnc(CC)s1` . Result: 4.5

Value sought: inhibition, system Aldo-keto reductase family 1 member B1 (Rattus norvegicus) (UniProt P07943), item `C=C(NC(C)=O)C(=O)NCCC(C)C` . Result: 4.13

Value sought: inhibition, system Aldo-keto reductase family 1 member B1 (Rattus norvegicus) (UniProt P07943), item `C=C(NC(C)=O)C(=O)NCc1ccccc1Cl` . Result: 7.26

---
Value sought: inhibition, system Aldo-keto reductase family 1 member B1 (Rattus norvegicus) (UniProt P07943), item `C=C(NC(C)=O)C(=O)NCC` . Result: 13.1

Value sought: inhibition, system Aldo-keto reductase family 1 member B1 (Rattus norvegicus) (UniProt P07943), item `C=C(NC(C)=O)C(=O)N1CCCCC1` . Result: 3.4

Value sought: inhibition, system Aldo-keto reductase family 1 member B1 (Rattus norvegicus) (UniProt P07943), item `C=C(NC(C)=O)C(=O)NCCC` . Result: 4.32
